Attribution: ChEMBL document CHEMBL1143704

pEC50 for assorted molecules
- Test system: Radical scavenging activity
- assayComment: Antioxidant activity assessed as DPPH radical scavenging activity after 30 mins
- Format: functional
pEC50: −log10 of the molar value.
measuredEndpoint: pEC50

molecule="COc1ccc(O)c(C(C)(C)C)c1.COc1ccc(O)cc1C(C)(C)C [BUTYLATED HYDROXYANISOLE]" resultnumber=4.01
molecule="Cc1c(C)c2c(c(C)c1O)CCC(C)(C(=O)O)O2 (stereo unspecified)" resultnumber=4.42
molecule="C/C=C/c1cc2c(c(=O)o1)-c1c(O)c(O)c(OC)c(C=O)c1C(OC)O2 (stereo unspecified)" resultnumber=4.54
molecule="C/C=C/c1cc2c(c(=O)o1)-c1c(O)c(O)c(OC)c(C=O)c1C(OC(C)C)O2 (stereo unspecified)" resultnumber=4.57
molecule="C/C=C/c1cc2c(c(=O)o1)-c1c(O)c(O)c(OC)c(C=O)c1C(O)O2 (stereo unspecified)" resultnumber=4.34
molecule=C/C=C/c1cc2c(c(=O)o1)-c1c(O)c(O)c(OC)c(C=O)c1CO2 resultnumber=4.38

###

- assayComment: Antioxidant activity assessed as ABTS radical scavenging activity after 7 mins
pEC50: −log10 of the molar value.
measuredEndpoint: pEC50

compound="C/C=C/c1cc2c(c(=O)o1)-c1c(O)c(O)c(OC)c(C=O)c1C(OC(C)C)O2 (stereo unspecified) [CYATHUSAL C]" measuredendpoint=pEC50 resultnumber=5.04
compound="Cc1c(C)c2c(c(C)c1O)CCC(C)(C(=O)O)O2 (stereo unspecified) [TROLOX]" measuredendpoint=pEC50 resultnumber=4.84
compound="C/C=C/c1cc2c(c(=O)o1)-c1c(O)c(O)c(OC)c(C=O)c1C(OC)O2 (stereo unspecified) [PULVINATAL]" measuredendpoint=pEC50 resultnumber=5.08
compound="C/C=C/c1cc2c(c(=O)o1)-c1c(O)c(O)c(OC)c(C=O)c1C(O)O2 (stereo unspecified) [CYATHUSAL B]" measuredendpoint=pEC50 resultnumber=4.96
compound="C/C=C/c1cc2c(c(=O)o1)-c1c(O)c(O)c(OC)c(C=O)c1CO2 [CYATHUSAL A]" measuredendpoint=pEC50 resultnumber=5.10
compound="COc1ccc(O)c(C(C)(C)C)c1.COc1ccc(O)cc1C(C)(C)C [BUTYLATED HYDROXYANISOLE]" measuredendpoint=pEC50 resultnumber=4.93
